# assay.system: β-secretase(BACE) (Homo sapiens, UniProt P56817)
# Construct: purchased Panvera
# Sequence (P56817 46-501): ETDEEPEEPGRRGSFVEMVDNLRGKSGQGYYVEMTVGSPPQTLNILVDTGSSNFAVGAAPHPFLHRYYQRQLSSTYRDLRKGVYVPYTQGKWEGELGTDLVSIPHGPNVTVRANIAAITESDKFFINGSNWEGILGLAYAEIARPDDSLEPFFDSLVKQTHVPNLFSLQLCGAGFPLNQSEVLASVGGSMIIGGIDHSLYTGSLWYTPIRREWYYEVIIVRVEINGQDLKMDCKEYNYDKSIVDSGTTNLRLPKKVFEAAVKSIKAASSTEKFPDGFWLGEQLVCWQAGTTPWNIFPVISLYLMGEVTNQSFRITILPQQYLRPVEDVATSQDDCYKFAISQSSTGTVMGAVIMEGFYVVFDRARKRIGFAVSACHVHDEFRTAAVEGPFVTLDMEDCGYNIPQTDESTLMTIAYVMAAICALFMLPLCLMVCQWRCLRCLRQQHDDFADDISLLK
# assay.text: BACE Assay-1 (MCA-substrate, IC50)
# Format: biochemical
# condition: procedure of Example 158; read-out: IC50 μM (158)
reported.property: IC50 (µM)
Dear colleague, please return just the value in µM, with no unit written.

smiles.str: CC(C)(C)OC(=O)NCCN1Cc2cc(Oc3cccc(NS(=O)(=O)c4ccccc4)c3)ccc2N=C1N
reported.property: IC50
value.measured: 0.87
//
smiles.str: CCCN1Cc2cc(Oc3cccc(CNCCc4ccccc4)c3)ccc2N=C1N
reported.property: IC50
value.measured: 0.8

Then this molecule:
// field: IC50; key: CN(C(=O)c1cccc(CN2Cc3cc(-c4cccc5ccccc45)ccc3N=C2N)c1)C1CCCCC1 ; value = 0.048

* * *

In this section we review reported inhibition at 3 µM values for a set of compounds.
# assay.system: β-secretase(BACE) (Homo sapiens, UniProt P56817)
# Construct: purchased Panvera
# assay.text: BACE FS1% Inhibition Assay
# Type: biochemical
# condition: 3 μM test compound; FS1 substrate; read-out: % Inhibition (FS)
# Experimental: BACE FS1% Inhibition Assay The following reagents were used in this assay: sodium acetate, PEG8000 (Sigma), DMSO, HEPES, FS1 substrate [[…]] […] The FS1-substrate stock solution was prepared in DMSO as a 10 mg/mL solution. The FS1-substrate working solution was prepared by diluting the 10 mg/mL stock solution with substrate assay buffer to a final concentration of 300 μg/mL. […] For test compounds, % inhibition was determined at each concentration as follows: [formula]
Dear colleague, please return just the value in %, with no unit written.

Example compounds with recorded inhibition at 3 µM:
compound: NC1=Nc2ccc(Oc3ccccc3)cc2CN1[C@@H](CCC(=O)N(Cc1ccncc1)C1CCCCC1)C1CCCCC1
inhibition at 3 µM [%]: 106
--
compound: CN(C(=O)CCC(C1CCCCC1)N1Cc2cc(Oc3ccccc3)ccc2N=C1N)C1CCCC(C(=O)O)C1 (stereo not drawn)
inhibition at 3 µM [%]: 117
--
compound: CN(C(=O)CC[C@@H](C1CCOCC1)N1Cc2cc(Oc3ccccc3)ccc2N=C1N)C1CCCCC1
inhibition at 3 µM [%]: 139
--
compound: CN(C(=O)CC[C@@H](C1CCC(=O)CC1)N1Cc2cc(Oc3ccccc3)ccc2N=C1N)C1CCCCC1
inhibition at 3 µM [%]: 133
--
compound: NC1=Nc2ccc(Oc3ccccc3)cc2CN1[C@@H](CCC(=O)N(CC(=O)O)C1CCCCC1)C1CCCCC1
inhibition at 3 µM [%]: 126
--
compound: NC1=Nc2ccc(Oc3ccccc3)cc2CN1[C@@H](CCC(=O)N[C@@H](COCc1ccccc1)C(=O)O)C1CCOCC1
inhibition at 3 µM [%]: 113
--
compound: CN(C(=O)CCC(C1CCCCC1)N1Cc2cc(Oc3ccccc3)ccc2N=C1N)C1CCC(O)CC1 (stereo not drawn)
inhibition at 3 µM [%]: 134
--
compound: CN(C(=O)CC[C@@H](C1CCCCC1)N1Cc2cc(Oc3ccccc3)ccc2N=C1N)[C@H]1CC[C@@H](C(=O)O)CC1
inhibition at 3 µM [%]: 105
--
compound: CCOC(=O)C1CCC(N(C)C(=O)CCC(C2CCOCC2)N2Cc3cc(Oc4ccccc4)ccc3N=C2N)CC1 (stereo not drawn)
inhibition at 3 µM [%]: 101
--
compound: COC(=O)[C@H](COCc1ccccc1)N(C)C(=O)CC[C@@H](C1CCOCC1)N1Cc2cc(Oc3ccccc3)ccc2N=C1N
inhibition at 3 µM [%]: 114

inhibition at 3 µM on β-secretase(BACE) (Homo sapiens, UniProt P56817) for COC(=O)[C@H]1CC[C@@H](N(CCO)C(=O)CC[C@@H](C2CCCCC2)N2Cc3cc(Oc4ccccc4)ccc3N=C2N)CC1 is 113

inhibition at 3 µM on β-secretase(BACE) (Homo sapiens, UniProt P56817) for NC1=Nc2ccc(Oc3ccccc3)cc2CN1[C@@H](CCC(=O)N[C@@H](CO)C(=O)O)C1CCOCC1 is 105
